test system: MRC-5 normal cells; assay: SRB cytotoxicity assay, MRC-5 normal cells; assay type: cell-based; conditions: Homo sapiens, MRC5, 50% growth inhibition, 48 h exposure
Measurement Label: IC50 (µM)
Give the value, in units of µM, as a plain number.

Provide IC50, system MRC-5 normal cells, entry `O=C(O)C=CC=Cc1ccccc1`
240

Provide IC50, system MRC-5 normal cells, entry `O=C(O)C(=CC(Br)=Cc1ccccc1)c1ccccc1`
92

Provide IC50, system MRC-5 normal cells, entry `O=C(O)C(=CC=Cc1ccc([N+](=O)[O-])cc1)c1ccccc1`
96.3

Provide IC50, system MRC-5 normal cells, entry `O=C(O)C=CC=Cc1ccc([N+](=O)[O-])cc1`
240

Provide IC50, system MRC-5 normal cells, entry `O=C(O)C=CC(Br)=Cc1ccccc1`
24
